# key: entry, value: PBM binding z-score
- Tested on: PPARg:RXRa 270nM:90nM, anti-RXR (NR concentration 270 nM, RXRa partner concentration 90 nM)
- Assay details: PBM binding z-score (relative to random genomic background probes); higher = stronger binding; sequences stand for … in GC…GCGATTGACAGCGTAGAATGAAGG
API note: the answer field is a bare number with no unit suffix.

Example cases with answers are listed next.
# Sequence code, Assay result
measured = [
    ("CGTCCAAGGTCAAGGTCAGTGATAGAGACTCGAA", 6.15),
    ("TCTCGGAGGCCACGAAAGGTCAGAGCTCGACATC", 2.91),
    ("TCTTGTAGATGAATAGAGGTTAAGAAAGTGCGCT", 2.17),
    ("GCAGACAGGTGAAACGCAGGTAACACAGGGTGGC", 0.128),
]

Switching to the query record.
INPUT: Fill in: PBM binding z-score of ACTATTTGGTCAGCTGAGGTCACACACAATTCGG is ___
OUTPUT: 2.4

---

- Test system: PPARg:RXRa 270nM:90nM, anti-RXR (NR concentration 270 nM, RXRa partner concentration 90 nM)
- Assay details: PBM binding z-score (relative to random genomic background probes); higher = stronger binding; sequences stand for … in GC…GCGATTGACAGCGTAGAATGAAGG
# key: entry, value: PBM binding z-score
API note: the answer field is a bare number with no unit suffix.

Example cases with answers are listed next.
# Sequence code, PBM binding z-score
rows = [
    ("ATCTCTAAGTAAAGTTCAGTGAAAGATCGATAGA", 2.92),
    ("AGTCAATGTTCACTAGGTAACGTAAGATTCAGCT", 0.368),
    ("ATCGAAAGGTCGATGTGAGTATAGAGAAAGGGAA", 1.77),
]

INPUT: Fill in: PBM binding z-score of CATACTGGGCCAAAGGTCATTGATTCCAATGCTC is ___
OUTPUT: 10.1

INPUT: Then TCTATTAGTTGATCAGGGCAACCGAAACAGCGGA ?
OUTPUT: 2.02

INPUT: Then CATACAGGGTCAGATAGGCCAGAGTAGGGACGGC ?
OUTPUT: 2.6

INPUT: Then TGAATGAGGTTAAAGATCAGGTAACGTGGCGTCG ?
OUTPUT: 5.96

INPUT: Then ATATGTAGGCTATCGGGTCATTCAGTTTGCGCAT ?
OUTPUT: 3.83

INPUT: Then CGTCCAAGGTCAATGCTAGGTCAGTGAAAGCATT ?
OUTPUT: 4.74

INPUT: Then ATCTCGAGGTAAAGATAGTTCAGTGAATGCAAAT ?
OUTPUT: 0.25

INPUT: Then ATCGAAAGGTTGACGAGGTGAGTATACACCGTTT ?
OUTPUT: 0.974

INPUT: Then CTCGAAAGTTCGTGCTCAGGTGAGTATACCAAAC ?
OUTPUT: 0.502

---

- Test system: PPARg:RXRa IVT, anti-PPARg (NR concentration 270 nM, RXRa partner concentration 90 nM)
- Assay details: PBM binding z-score (relative to random genomic background probes); higher = stronger binding; sequences stand for … in GC…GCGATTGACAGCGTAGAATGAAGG
Property measured: PBM binding z-score
API note: the answer field is a bare number with no unit suffix.

# Sequence code, Assayed target, PBM binding z-score
measured = [
    ("TCTATTAGTTCAAGGGCAACCGACGAGTCCGTTT", "PPARg:RXRa IVT, anti-PPARg (NR concentration 270 nM, RXRa partner concentration 90 nM)", 1.14),
    ("CCTAGTTGGTCAAGGTCGCACACGCTATAGGTAC", "PPARg:RXRa IVT, anti-PPARg (NR concentration 270 nM, RXRa partner concentration 90 nM)", 1.87),
    ("ACTAGCAAGCCAAGGGTCACTCAAGATTAGTCCG", "PPARg:RXRa IVT, anti-PPARg (NR concentration 270 nM, RXRa partner concentration 90 nM)", 1.46),
    ("ACTATTTGTTGAGACGAGGGCAACCGATAGGTTG", "PPARg:RXRa IVT, anti-PPARg (NR concentration 270 nM, RXRa partner concentration 90 nM)", 0.881),
    ("ATCTCTAGGTCACAAGTTCAGTGAAAGAGAGGAC", "PPARg:RXRa IVT, anti-PPARg (NR concentration 270 nM, RXRa partner concentration 90 nM)", 6.99),
    ("TAGCCTAGGTCATTCAGGGGCCAGGATAGAAAGC", "PPARg:RXRa IVT, anti-PPARg (NR concentration 270 nM, RXRa partner concentration 90 nM)", 2.85),
    ("AAAACAGGGTCACTAGGCCAGAGTAGGTACGAAT", "PPARg:RXRa IVT, anti-PPARg (NR concentration 270 nM, RXRa partner concentration 90 nM)", 6.57),
    ("GCTCGGAGGACATGGTCAGAGCTTTGTCCGTAGA", "PPARg:RXRa IVT, anti-PPARg (NR concentration 270 nM, RXRa partner concentration 90 nM)", -0.659),
    ("TCATATAGGTAAACAGGTGACAGTCCGTAAGTTA", "PPARg:RXRa IVT, anti-PPARg (NR concentration 270 nM, RXRa partner concentration 90 nM)", 4.6),
    ("GCTGCTAGGTCAACTGATGGTCCGCTAAAGCTCG", "PPARg:RXRa IVT, anti-PPARg (NR concentration 270 nM, RXRa partner concentration 90 nM)", 3.92),
]

INPUT: Fill in: PBM binding z-score of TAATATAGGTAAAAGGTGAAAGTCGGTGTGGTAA is ___
OUTPUT: 6.22

INPUT: Then AGAATGAGGTTATACGTACATCAGGGAAGAAAGT ?
OUTPUT: 2.41

INPUT: Then GCTTGTAGATCAAGGTTAAGATAGACTAAGCTAA ?
OUTPUT: 1.14

INPUT: Then AGAACGAGGGCAATGAGTTGAGAGCACGGGTGGC ?
OUTPUT: 2.73

INPUT: Then GCTATCAGGCCATTTGGGTCACTCAATGACGGGC ?
OUTPUT: 2.59

INPUT: Then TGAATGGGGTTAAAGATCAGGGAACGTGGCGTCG ?
OUTPUT: 3.96

INPUT: Then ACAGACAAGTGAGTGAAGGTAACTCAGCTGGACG ?
OUTPUT: -0.138
